Source listed as ChEMBL document CHEMBL5325500.

# Test: Stability in phosphate buffer at pH 6 assessed as drug degradation at 250 uM measured after 1.5 hrs by 1H-NMR analysis
# Format: physicochemical
# Experimental Conditions: read-out: Drug degradation
Value Type: degraded at 1.5 h, 250 µM

• CCOC(=O)N1CCN(C(c2ccccn2)c2c(-c3ccccc3)[nH]c3ccccc23)CC1 (stereo unspecified) = 50%
